assay: pH solubility screen in Citric Acid / Dibasic Sodium Phosphate buffers; format: physicochemical; conditions: other pH where soluble
Quick reference for pH Range where Protein is >80% detected as Soluble and A650 <1 OD: Other among some molecules
Enter the number alone.

Identify the reported pH Range where Protein is >80% detected as Soluble and A650 <1 OD: Other for the following entry. SEQID-00485: nutritive polypeptide naturally produced in Chickpea, recombinantly expressed in E. coli (protein, listed as Cicer arietinum) MTKTGYINAAFRSSRNNEAYLFINDKYVLLDYAPGTSNDKVLYGPSFVRDGYKSLAKTIFGTYGIDCSFDTEYNEAFIFYENFCARIDYAPHSDKDKIISGPKKIADMFPFFKGTVFENGIDAAFRSTKGKEVYLFKGDKYARIDYLTNRLVQNIKSISDGFPCLRGTIFEAGMDSAFASHKTNEAYLFKGEYYARINFTPGSTNDIMGGVKKTLDYWPSLRGIIPLE 2.8

Output measured pH Range where Protein is >80% detected as Soluble and A650 <1 OD: Other for this item: SEQID-00287: nutritive polypeptide (protein, listed as Saccharomyces cerevisiae, strain ATCC 204508 / S288c, nutritive polypeptide) LVLGALLDTSHKFRNLDKDLCEKCAKCISMIGVLDVTKHEFKRTTYSENEVYDLNDSVQTIKFLIWVINDILV 2.6

Fill in reported pH Range where Protein is >80% detected as Soluble and A650 <1 OD: Other for this entry: SEQID-00510: nutritive polypeptide naturally produced in Turkey, recombinantly expressed in E. coli (protein, Meleagris gallopavo, nutritive polypeptide naturally produced in Turkey, recombinantly expressed in E. coli) MVPIAEKMAEKQEEPSNTQNGEPDNAEEGEGKKKKKVKREDLPPFEIVTGERLPAIFFKFQFRNVEYSSGRNKTFLCYVVETQGKESTTSRGYLEDEHAASHAEIAFFNTILPKCESSLRYNITWYVSSSPCVTCADRISETLRKNKNLRLTIMVGRLFMWEEPEMQAALKKMKSAGCKLRIMKPQDFEYVWQNFVEQEEGEEAKAFVPWEDIQENFQYYEEKLAEILQ 2.8

Give reported pH Range where Protein is >80% detected as Soluble and A650 <1 OD: Other value for SEQID-00502: protein of the 168 nutritive polypeptide library (protein, Glycine max, protein of the 168 nutritive polypeptide library) MASQSNTKSVHDFTVKDARGNNVNLADYKGKVLLIVNVASQCGLTNSNYTELNQLYEKYKGKGLEILAFPCNQFGAQEPGTNEEIVEFACTRFKAEFPIFDKVDVNGDNAAPLYKFLKSSKGGLFGDSIKWNFSKFLVDKDGNVVDRYAPTTSPLSIEKDIKKLLDA 2.8
